The origin of these recorded values is ChEMBL document CHEMBL1201862.

# System: ACHN
# run description: NCI tumour cell line growth inhibition, 48 h
Calls of active or inactive are those of the source. No stated cut-off is given here; in the data, active = GI50 up to about 1.1 µM and inactive = higher.
Please respond with reported GI50 for every item in the list.

Consider the worked cases shown below.
COC[C@@H](C[C@H]1O[C@@](O)([C@H](O)[C@@H]2C[C@H](OC)[C@@H](O)CC/C=C(C)/C=C/[C@@H](O[C@@H]3O[C@@H](C)[C@H](OC)[C@@H](O)[C@@H]3O)[C@H](C)/C=C(C)/C=C(C)/C=C(\C)C(=O)O2)[C@H](C)[C@@H](O)[C@H]1C)O[C@H]1C[C@](C)(O)[C@@H](O[C@H]2C[C@@H](OC)[C@H](O)[C@@H](C)O2)C(C)O1 (some centres undefined) | 96.4 µM (inactive)
COc1ccc(/C=C2\CN(C)CC3C2=NC(=S)NC3c2ccc(OC)cc2)cc1 (centres undefined) | 5.73 µM (inactive)
COC1C2c3ccccc3C(C#N)(Cc3ccc4c(c32)OCO4)N1C(=O)c1ccccc1 (centres undefined) | 41.4 µM (inactive)

# batch: return GI50 for each of the 7 molecules below
1. Cc1ccccc1Nc1cn(CCOc2ccccc2)c(=O)n(CCOc2ccccc2)c1=O
2. CC(=O)N1CCC2(c3ccccc3N(C(C)=O)C2c2ccc(O)cc2)C1C(=O)O (centres undefined)
3. CC1=NN(C(=O)c2ccc(Cl)cc2)C(=O)/C1=C/c1ccco1
4. N#COc1ccc(Oc2ccccc2)cc1
5. NC1=C(N2CCOCC2)C(=O)NC2=N/C(=C\c3ccccc3O)C(=O)N21
6. CC[C@@]1(C[C@H]2C[C@@]3(C(=O)OC)c4[nH]c5ccccc5c4CCN3C2=S)COC2(CCCCC2)O1
7. NCC(O)CSCc1ccc(Cl)cc1 (centres undefined)

result:
1: > 100 µM (inactive); 2: > 100 µM (inactive); 3: > 100 µM (inactive); 4: 29.2 µM (inactive); 5: > 100 µM (inactive); 6: 45.8 µM (inactive); 7: > 100 µM (inactive)

Parameter requested: GI50. Apply to each item below.
1. O=C(CC(=O)C1CCOC1=O)C(=O)Nc1ccc(Cl)cc1Cl (centres undefined)
2. CC(C)CCn1nc(N)c2nc3ccccc3nc21
3. O=c1cc2ccccc2nn1Cc1cccc(Cl)c1
4. COc1nc(NC2OC(COC(C)=O)C(OC(C)=O)C(OC(C)=O)C2OC(C)=O)c(/N=C(\C)C(C)=O)c(=O)n1C (centres undefined)

result:
1. > 100 µM (inactive)
2. 41.3 µM (inactive)
3. > 100 µM (inactive)
4. > 100 µM (inactive)

Give GI50 for each of the items listed below.
1. CC(=O)OCC1OC(OCC2OC(N3C(=S)N[C@H]([C@@H](O)[C@H](O)[C@H](O)CO)[C@H]3O)C(OC(C)=O)C(OC(C)=O)C2OC(C)=O)C(OC(C)=O)C(OC(C)=O)C1OC(C)=O (some centres undefined)
2. C/C(=C\C(=O)O)C(=O)N(C)c1ccccc1I
3. Cn1c(=O)c2ccccc2c2ccccc21

result:
["> 100 µM (inactive)", "> 100 µM (inactive)", "33 µM (inactive)"]

Can you give me GI50 for all of these, one by one?
1. CC(C)(c1cn(Cc2ccccc2)c2ccccc12)c1cn(Cc2ccccc2)c2ccccc12
2. C=CCCCCCCC#CCCCCCCCCCC[C@@H]1C(=O)O[C@H](C)[C@@H]1O.CCCCCCCCC#CCCCCCCCCCC[C@@H]1C(=O)O[C@H](C)[C@@H]1O
3. CCN(CC)c1ccc2cc(C(=O)Nc3ccc(C)cc3)c(=N)oc2c1
4. COC(=O)CC1C(COC(C)=O)OC(n2cc(C)c(=O)[nH]c2=O)C1OC(C)=O (centres undefined)
5. CN1CCS(=O)(=O)NC(Cc2ccccc2)C(=O)N2CCCC2C1=O (centres undefined)
6. FC(F)(Sc1ccccn1)c1nc2ccccc2o1

result:
1: > 100 µM (inactive); 2: 17.7 µM (inactive); 3: > 100 µM (inactive); 4: > 100 µM (inactive); 5: > 100 µM (inactive); 6: > 100 µM (inactive)
